Origin of measurements: patent US20250019450A1

Target: T1, human IL-12RB1 with C-terminal FLAG tag, transiently expressed on HEK-293T cells (human, UniProt P42701 24-662)
T1 construct: whole, on cells
Assay: FACS, periplasmic extract, HEK-293T
Experimental Readout: FOB (fold)

a = VHH25B1 (VHH) VHH: QVQLQESGGALVQPGGSLRLSCVVSGFTSDYFAIGWFRQAPGKEREGVSCIGSSDGSTIYSDSVKGRFTISRDNAKNTVYLQMNSLKPEDTGVYYCALDRGRRTIIGYACYATMKYWGKGTPVTVSS
b = VHH86B1 (VHH) VHH: QVQLVESGGGLMQAGGSLRLSCALSRGIFSAYAMGWFRQVQGKEREFVSGISRSGSTTDYVDTAKGRFTISRDNARDTVYLQMNSLKPEDTAVYYCAAVTGTFPSSTYHNANAYHHWGQGTQVTVSS
c = VHH41B1 (VHH) VHH: EVQLVESGGGLVQAGGSLRVACAASGRTFSTYAMAWFRQAPGKEREFVAHILWSGGSTVYPDSVRGRFTISRDNAKNTVYLQMNSLKPEDTAVYYCAQKSGRQVYRIDSWDSFDYWGQGTSVTVSS
Qu. Place the items in sequence of falling FOB. Put the labels in the order asked and list them.
Ans. a, b, c

P = VHH321B1 (VHH) VHH: QVQLVESGGGLVQPGGSLRLSCIASGFTFSDYAMKWVRRPPGKGLEWVSVIDSEGPTIKYSDAVRGRFTISRDNAKNTLYLQMNSLKPEDTAVYYCAKSNGGSAFSSVLYTDRGQGTQVTVSS
Q = VHH258B1 (VHH) VHH: QVQLVESGGGLVQAGGSLRLSCAASGRTFSSYVMGWFRQAPGQEREFVAAIMRNGIMTYYADSVKGRFTISRDNAKNTVYLQMNTLKPDDTAVYYCAAASRVGVSISQSSSYTSWGQGTQVTVSS
R = VHH136B1 (VHH) VHH: QVQLQESGGGLVQAGGSLRLSCAAPGRYAVGWFRQAPGKEYEFVAAITVSGGSKYYEDSVKGRFTISRDNAKNTVYLEMNSLKAEDTAVYYCAARTPKFGSGWYNRRGEYDYWGQGTQVTVSS
Qu. I would appreciate it if you could sort these 3 binders by FOB, starting from the smallest number. Record the ranking as a list of labels in the requested order.
Ans. R, P, Q

I = VHH172B1 (VHH) VHH: QVQLVESGGGLVQAGGSLRLSCAAPGRYAVGWFRQAPGKEYEFVAAITVSGGSKYYEDSVKGRFTISRDNAKNTVYLEMNSLKAEDTAVYYCAARTPKFGSGWYNRRGEYDYWGQGTQVAVSS
II = VHH50B1 (VHH) VHH: QVQLVESGGGLVQAGGSLRLSCAASGRAFSRYSMGWFRQAPGKEREFVAANYWSNGWTDYADTVKGRFSISRDNAKNTVYLQMNSLKPEDTAVYYCAGRSSSIPSADVVGYDYWGQGTQVTVSS
Qu. Which has the higher FOB, I or II ? Identify your selection by its label.
Ans. II
(II: 132 fold, I: 75.1 fold)

P = VHH195B1 (VHH) VHH: QVQLVESGGGLVQAGGSLRLSCAASGRTFGTYAMGWFRQAPGKERDFVARISNSGAFTHYADSVKGRFTISRDNAKNTVYLHMNSLENGDTAAYYCVATRGTNSAYYTRSTMYEYWGQGTQVTVSS
Q = VHH137B1 (VHH) VHH: QVQLVESGGGLVQAGGSLRLSCAASGRTFRTYAMGWFRQAPGKDREVVGIAAWKVASTYYVDYGDSVRGRFTISRDDAKSTVYLQMNNLMPEDTAVYYCAAGAFRTDWRSYAYWGQGTQVTVSS
Qu. Lower FOB: P or Q ? Kindly give the label for the entry you pick.
Ans. P

I = VHH67B1 (VHH) VHH: QVQLVESGGGLVQAGGSLRLSCAASARIFNSYAVAWFRQTPGKEREFVASISWSGGSTNYADSVKGRFTISRDNAKNTVFLQMNSLKPADTAVYYCAADRNYYPSVLGKYTYWGQGTQVTVSS
II = VHH97B1 (VHH) VHH: QVQLVESGGGLAQAGGSLRLSCAASGRTFSNDDMAWFRQAPGKEREFVAHIDRNAASTNYADSVKGRFTISRDNAKNTVYLQMTRLKPEDTAVYYCAADPDHFGTTWYQQYTYWGPGTQVTVSS
Qu. Would you mind telling me which has the lower recorded FOB between I and II ? // return label of chosen record
Ans. I
